Recorded Ratio values for a group of compounds are listed next.
Molecular target: Neutrophil elastase (Homo sapiens) (UniProt P08246)
Sequence (P08246 whole entry): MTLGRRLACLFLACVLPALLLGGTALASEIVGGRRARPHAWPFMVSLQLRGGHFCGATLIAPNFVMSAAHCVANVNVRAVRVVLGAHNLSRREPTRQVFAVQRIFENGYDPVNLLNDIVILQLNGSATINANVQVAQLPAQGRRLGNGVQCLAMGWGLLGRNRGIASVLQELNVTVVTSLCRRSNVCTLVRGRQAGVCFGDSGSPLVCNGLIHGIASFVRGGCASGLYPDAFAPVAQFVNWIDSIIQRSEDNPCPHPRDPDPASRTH
Experiment: Inhibition of human leukocyte elastase at 25 uM assessed as Kinact/Ki ratio incubated for 15 mins by spectrofluorometry
Respond with the bare value in M⁻¹ s⁻¹.

Past entries and their recorded results:
CCc1ccc(OP(=O)(Oc2ccc(CC)cc2)C(NC(=O)[C@@H]2CCCN2C(=O)[C@@H](NC(=O)OC(C)(C)C)C(C)C)C(C)C)cc1 (mixture of isomers) | 6800
CSc1ccc(OP(=O)(Oc2ccc(SC)cc2)[C@@H](NC(=O)[C@@H]2CCCN2C(=O)[C@@H](NC(=O)OC(C)(C)C)C(C)C)C(C)C)cc1 | 431000

API: value(readout=Ratio, system=Neutrophil elastase (Homo sapiens) (UniProt P08246)) for record CSc1ccc(OP(=O)(Oc2ccc(SC)cc2)C(NC(=O)[C@@H]2CCCN2C(=O)[C@@H](NC(=O)Cn2ccc(=O)n(CC(=O)O)c2=O)C(C)C)C(C)C)cc1 (mixture of isomers)
460000
